- TEST SUMMARY: BSK_4H_Eotaxin3: BioMAP Diversity Plus: 4H Assay for Eotaxin 3 Biomarker Activity (AID 2283000);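 on outcome: CCL26 protein level quantified by ELISA in parallel with SRB cytotoxicity check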
- ASSAY CONTEXT: primary human endothelial cells (HUVEC); actives raise or lower the signal
The source made the active and inactive calls. How the source made its calls: active means hit-call score of the fitted dose curve at least 0.9, where 1 is the maximum; inactive means score below 0.9.
One label from this list, please: active, inactive

Query: Name the outcome recorded for CCCC(=O)OCC in the assay.
Result: inactive

Query: Name the outcome recorded for Cc1ccc(N)cc1O in the assay.
Result: active

Query: Name the outcome recorded for COC(=O)c1ccccc1O in the assay.
Result: inactive

---

- Read-out: CYP2C9 (gene 1559)
- TEST SUMMARY: LTEA_HepaRG_CYP2C9: Life Technologies and Expression Analysis (LTEA) Assay for CYP2C9 using HepaRG (AID 2283484)
- ASSAY CONTEXT: mRNA level, 48 h; actives raise or lower the signal
Activity calls are given as the source filed them. How the source made its calls: active means hit-call score of the fitted dose curve at least 0.9, where 1 is the maximum; inactive means score below 0.9.
One label from this list, please: class 1 for active, class 0 for inactive

Query: Name the outcome recorded for COc1ccc(/C=C/S(=O)(=O)NC(=O)c2ccc(C)cc2Cl)cc1 in the assay.
Result: class 0

Query: Name the outcome recorded for CCOCCOCCOCCO in the assay.
Result: class 0

Query: Name the outcome recorded for COC(=O)c1ccccc1O in the assay.
Result: class 0

Query: Name the outcome recorded for Cc1ccc(S(=O)(=O)O)cc1C in the assay.
Result: class 0

Query: Name the outcome recorded for CCOC(=O)COc1ccc2c(c1)CC(NCC(O)c1cccc(Cl)c1)CC2 (centres undefined) in the assay.
Result: class 0

Query: Name the outcome recorded for CNS(=O)(=O)c1cc(C(=O)N2CCC(CCN3C4CCC3CC(n3c(C)nc5ccccc53)C4)(c3cccc(F)c3)CC2)c(Cl)cc1F (centres undefined) in the assay.
Result: class 1

Query: Name the outcome recorded for CCOC(=O)c1ccc(C2CCC(NC[C@H](O)COc3ccc(O)c(NS(C)(=O)=O)c3)CC2)cc1 (some centres undefined) in the assay.
Result: class 0

Query: Name the outcome recorded for O=C(NS(=O)(=O)/C=C/c1ccccc1)c1ccc(F)cc1Cl in the assay.
Result: class 0

Query: Name the outcome recorded for CCc1cc(SCc2sc(-c3ccc(C(F)(F)F)cc3)nc2CN2CCN(c3ccc(OC)cc3)CC2)ccc1OCC(=O)O in the assay.
Result: class 1

Query: Name the outcome recorded for Nc1cccc(N)c1 in the assay.
Result: class 0

Query: Name the outcome recorded for Fc1ccccc1[C@@H](F)COC1CCC(Nc2ncnc3[nH]ncc23)CC1 (some centres undefined) in the assay.
Result: class 1

Query: Name the outcome recorded for CC[C@H]1CC[C@H](NCc2cc3c(cc2OC)[C@H]2C[C@H]2C(=O)N3C)[C@H](c2ccccc2)N1 in the assay.
Result: class 0

Query: Name the outcome recorded for C1=CCCC=CCCC=CCC1 in the assay.
Result: class 0

Query: Name the outcome recorded for O=C(CCCCCCCCc1cccnc1)N1CCC(C=C(c2ccccc2)c2ccccc2)CC1 in the assay.
Result: class 1

Query: Name the outcome recorded for COCCOCCOCCOC in the assay.
Result: class 0

Query: Name the outcome recorded for O=c1[nH]c2ccc(S(=O)CCN3CCC(Cc4ccc(F)cc4)CC3)cc2o1 (centres undefined) in the assay.
Result: class 1

Query: Name the outcome recorded for O=C1OC(=O)C2C3C=CC(C3)C12 (centres undefined) in the assay.
Result: class 0

Query: Name the outcome recorded for Oc1ccc2c(c1)-c1ccccc1C2 in the assay.
Result: class 0

Query: Name the outcome recorded for Cc1[nH]cnc1C[C@H]1CCc2c(C)c3ccccc3n2C1=O in the assay.
Result: class 1

Query: Name the outcome recorded for C=CC(=C)CCC=C(C)C in the assay.
Result: class 0

Query: Name the outcome recorded for CC1(C)C(=O)N(Br)C(=O)N1Br in the assay.
Result: class 0

Query: Name the outcome recorded for Clc1nc(Cl)c(Cl)c(Cl)c1Cl in the assay.
Result: class 0

Query: Name the outcome recorded for CN(C)c1ccc(Cc2ccc(N(C)C)cc2)cc1 in the assay.
Result: class 1

Query: Name the outcome recorded for CC(C)(O)c1coc(S(=O)(=O)NC(=O)Nc2c3c(cc4c2CCC4)CCC3)c1 in the assay.
Result: class 0

---

- Read-out: CD40, CD40 (gene 958)
- TEST SUMMARY: BSK_SAg_CD40: BioMAP Diversity Plus: SAg Assay for CD40 Biomarker Activity (AID 2283088)
- ASSAY CONTEXT: primary human HUVEC with PBMC; actives raise or lower the signal
- Method: BSK_SAg is a cell-based, multiplexed-readout assay that uses umbilical vein endothelium and peripheral blood mononuclear cells, a human vascular primary cell co-culture, with measurements taken at 24 hours after chemical dosing in a 96-well plate.BSK_SAg_CD40 is one of 10 assay component(s) measured or calculated from the BSK_SAg assay. […] This assay endpoint, BSK_SAg_CD40, was analyzed with bidirectional fitting relative to DMSO as the negative control and baseline of activity. […]
Activity calls are given as the source filed them. How the source made its calls: active means hit-call score of the fitted dose curve at least 0.9, where 1 is the maximum; inactive means score below 0.9.
One label from this list, please: 1 for active, -1 for inactive

Query: Name the outcome recorded for CCN(C(=O)c1cc(C)cc(OC[C@H](C)Nc2ccncc2)c1)C(C)C in the assay.
Result: -1

Query: Name the outcome recorded for Cc1[nH]cnc1C[C@H]1CCc2c(C)c3ccccc3n2C1=O in the assay.
Result: 1

Query: Name the outcome recorded for CCCCC(CC)COC(=O)c1ccc(C(=O)OCC(CC)CCCC)cc1 (configuration not stated) in the assay.
Result: -1

Query: Name the outcome recorded for CC(=O)OC[C@H]1O[C@@](COC(C)=O)(O[C@H]2O[C@H](COC(C)=O)[C@@H](OC(C)=O)[C@H](OC(C)=O)[C@H]2OC(C)=O)[C@@H](OC(C)=O)[C@@H]1OC(C)=O in the assay.
Result: -1

Query: Name the outcome recorded for NC(=O)NO in the assay.
Result: -1

Query: Name the outcome recorded for O=C(NS(=O)(=O)/C=C/c1ccccc1)c1ccc(F)cc1Cl in the assay.
Result: 1

Query: Name the outcome recorded for CC(C)CCCCCCCOC(=O)CCCCC(=O)OCCCCCCCC(C)C in the assay.
Result: -1

Query: Name the outcome recorded for C=CC(=C)CCC=C(C)C in the assay.
Result: -1

Query: Name the outcome recorded for CCCC(=O)OCC in the assay.
Result: -1

Query: Name the outcome recorded for CNCc1ccc(NC(=O)c2c[nH]c3c2C(=O)CCC3)cc1 in the assay.
Result: -1

Query: Name the outcome recorded for O=C(O)c1cccc(Oc2ccccc2)c1 in the assay.
Result: -1

Query: Name the outcome recorded for CC(C)=CCCC(C)CCO (configuration not stated) in the assay.
Result: -1

---

- TEST SUMMARY: APR_HepG2_MitoMass_72hr: Apredica 72-hour HepG2 Assay for Mitochondrial Mass (AID 2282924);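 further: MitoTracker Red CMXRos stain intensity per cell imaged as mitochondrial mass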
- ASSAY CONTEXT: high-content imaging, actives raise or lower the signal
- Protocol: APR_HepG2_72hr is a cell-based, multiplexed-readout assay that uses HepG2, a human liver cell line, with measurements taken at 72 hours after chemical dosing in a 384-well plate.APR_HepG2_MitoMass_72hr is one of 10 assay component(s) measured or calculated from the APR_HepG2_72hr assay. […] This assay endpoint, APR_HepG2_MitoMass_72hr, was analyzed with bidirectional fitting relative to DMSO as the negative control and baseline of activity. […]
The source made the active and inactive calls. How the source made its calls: active means hit-call score of the fitted dose curve at least 0.9, where 1 is the maximum; inactive means score below 0.9.
One label from this list, please: yes (1) for active, no (0) for inactive

Query: Name the outcome recorded for CC1=CC(=O)CC(C)(C)C1 in the assay.
Result: no (0)

Query: Name the outcome recorded for CC(=O)OCCC(C)C in the assay.
Result: no (0)

Query: Name the outcome recorded for O=P(OC(CCl)CCl)(OC(CCl)CCl)OC(CCl)CCl in the assay.
Result: no (0)

Query: Name the outcome recorded for CC(C)=CCC/C(C)=C\CO in the assay.
Result: yes (1)

Query: Name the outcome recorded for Fc1ccccc1[C@@H](F)COC1CCC(Nc2ncnc3[nH]ncc23)CC1 (some centres undefined) in the assay.
Result: no (0)

Query: Name the outcome recorded for Nc1cccc(N)c1 in the assay.
Result: no (0)

Query: Name the outcome recorded for Nc1ccc(Nc2ccccc2)cc1 in the assay.
Result: no (0)

Query: Name the outcome recorded for Cc1ccc(O)cc1 in the assay.
Result: no (0)

Query: Name the outcome recorded for O=C1CCCCCN1 in the assay.
Result: no (0)

---

- TARGET ENTITY: rat Opioid Receptor, Non-selective Binding, Oprm1 (gene 25601) (UniProt P33535)
- Sequence (P33535 whole entry, looked up): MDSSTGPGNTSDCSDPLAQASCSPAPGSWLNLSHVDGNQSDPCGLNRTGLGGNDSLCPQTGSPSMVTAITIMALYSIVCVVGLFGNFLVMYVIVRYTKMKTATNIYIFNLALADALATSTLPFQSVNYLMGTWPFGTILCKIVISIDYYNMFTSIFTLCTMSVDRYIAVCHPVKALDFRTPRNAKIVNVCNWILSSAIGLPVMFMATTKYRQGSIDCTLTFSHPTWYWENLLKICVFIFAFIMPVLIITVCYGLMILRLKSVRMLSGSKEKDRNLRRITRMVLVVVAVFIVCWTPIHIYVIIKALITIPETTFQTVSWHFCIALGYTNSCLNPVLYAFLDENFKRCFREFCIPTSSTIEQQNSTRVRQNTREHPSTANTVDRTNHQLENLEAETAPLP
- TEST SUMMARY: NVS_GPCR_rOpiate_NonSelective: NovaScreen (NVS) G Protein-Coupled Receptor Assay for rat Opioid Receptor, Non-selective Binding (AID 2283318)
Records with an inconclusive call do not appear. The source made the active and inactive calls. How the source made its calls: active means hit-call score of the fitted dose curve at least 0.9, where 1 is the maximum; inconclusive means response in the unintended direction; inactive means score below 0.9.
One label from this list, please: active, inactive

Query: Name the outcome recorded for CCn1nc(Cc2ccccc2)cc1C1CCN(C[C@H]2C[C@H](N(C)[C@@H](C(=O)O)C(C)C)C[C@@H]2c2cccc(F)c2)CC1 in the assay.
Result: active

Query: Name the outcome recorded for CCN(C(=O)c1cc(C)cc(OC[C@H](C)Nc2ccncc2)c1)C(C)C in the assay.
Result: inactive

Query: Name the outcome recorded for CC[C@H]1CC[C@H](NCc2cc3c(cc2OC)[C@H]2C[C@H]2C(=O)N3C)[C@H](c2ccccc2)N1 in the assay.
Result: active

Query: Name the outcome recorded for Cc1[nH]cnc1C[C@H]1CCc2c(C)c3ccccc3n2C1=O in the assay.
Result: active

Query: Name the outcome recorded for CCc1cc(SCc2sc(-c3ccc(C(F)(F)F)cc3)nc2CN2CCN(c3ccc(OC)cc3)CC2)ccc1OCC(=O)O in the assay.
Result: inactive

Query: Name the outcome recorded for CN(C)c1ccc(N=NS(=O)(=O)O)cc1 in the assay.
Result: active
